Reported concentration at 0.083 h values for the following compounds.
assay: PK study in SD rats after a single intravenous administration; format: in vivo; settings: Sprague-Dawley (SD), rat, plasma, 1 mg/kg, 0.083 h
Response body: numeric value in ng/mL, unit text excluded.

// solved cases for concentration at 0.083 h follow
[
  {
    "Compound": "O=C(O)COc1c(C(=O)O)sc(-c2cccc(NC3CCN(S(=O)(=O)Cc4ccc5oc(N6CCC(c7ccc8c9c(cccc79)C(=O)N8C7CCC(=O)NC7=O)CC6)nc5c4)C4(CC4)C3)c2)c1Cl (stereo not shown)",
    "concentration at 0.083 h [ng/mL]": 21900
  },
  {
    "Compound": "O=C(O)COc1c(C(=O)O)sc(-c2cccc(NC3CCN(S(=O)(=O)Cc4ccc5oc(N6CCC(c7ccc8c9c(cccc79)C(=O)N8C7CCC(=O)NC7=O)CC6)nc5c4)CC3)c2)c1Cl (stereo not shown)",
    "concentration at 0.083 h [ng/mL]": 21700
  },
  {
    "Compound": "[2H]C([2H])(c1ccc2oc(N3CCC(c4ccc5c6c(cccc46)C(=O)N5C4CCC(=O)NC4=O)CC3)nc2c1)S(=O)(=O)N1CCC(Nc2cccc(-c3sc(C(=O)O)c(OCC(=O)O)c3Cl)c2)CC1(C)C (stereo not shown)",
    "concentration at 0.083 h [ng/mL]": 19400
  }
]

Let us move to another entry and its concentration at 0.083 h.
Recall and state the measured concentration at 0.083 h for CC1(C)CC(Nc2cccc(-c3sc(C(=O)O)c(OCC(=O)O)c3Cl)c2)CCN1S(=O)(=O)Cc1ccc2oc(N3CCC(c4ccc5c6c(cccc46)C(=O)N5C4CCC(=O)NC4=O)CC3)nc2c1 (stereo not shown) . 18100

* * *

Experiment: PK study in SD rats after a single intravenous administration
Type: in vivo
Conditions: Sprague-Dawley (SD), rat, plasma, 2 mg/kg, 2 h
Description: A PK study of the compounds after a single intravenous administration. SD rats were randomly assigned to 5 groups (3 rats/group). Blood samples were collected from animals at 0.083 h, 0.25 h, 0.5 h, 1 h, 2 h, 4 h, 8 h, 10 h and 24 h after administration. […] The concentration of compounds in plasma were determined by an LC-MS/MS method with the lower limit of quantitation (LLOQ) of 0.50 ng/mL. Pharmacokinetic parameters were calculated with WinNonlin to assess the PK characteristics in SD rats. […]
Measured attribute: concentration at 2 h (ng/mL)
Give the quantity in ng/mL, number only.

Assign concentration at 2 h to the following record: CC1(C)C[C@@H](Nc2cccc(-c3sc(C(=O)O)c(OCC(=O)O)c3Cl)c2)CCN1S(=O)(=O)Cc1cccc(NC(=O)N2CCC(c3ccc4c5c(cccc35)C(=O)N4[C@H]3CCC(=O)NC3=O)CC2)c1 [Ref. Cpd, reference compound] 148

* * *

test: PK study in SD rats after a single intravenous administration; format: in vivo; details: Sprague-Dawley (SD), rat, plasma, 2 mg/kg, 8 h
Measured attribute: concentration at 8 h (µg/mL)
Give the number; µg/mL is assumed, so skip it.

Please report concentration at 8 h for the following molecule: CC1(C)C[C@@H](Nc2cccc(-c3sc(C(=O)O)c(OCC(=O)O)c3Cl)c2)CCN1S(=O)(=O)Cc1cccc(NC(=O)N2CCC(c3ccc4c5c(cccc35)C(=O)N4[C@H]3CCC(=O)NC3=O)CC2)c1 [Ref. Cpd, reference compound] 0.0293
